# TARGET OF ASSAY: T1, cynomolgus monkey DC-SIGN (full length, expressed on CHO cells) (cynomolgus monkey, UniProt Q95J96 1-403 (rhesus entry))
# T1 construct: also called cyno DC-SIGN; cyno DC-SIGN CHO
# T1 sequence: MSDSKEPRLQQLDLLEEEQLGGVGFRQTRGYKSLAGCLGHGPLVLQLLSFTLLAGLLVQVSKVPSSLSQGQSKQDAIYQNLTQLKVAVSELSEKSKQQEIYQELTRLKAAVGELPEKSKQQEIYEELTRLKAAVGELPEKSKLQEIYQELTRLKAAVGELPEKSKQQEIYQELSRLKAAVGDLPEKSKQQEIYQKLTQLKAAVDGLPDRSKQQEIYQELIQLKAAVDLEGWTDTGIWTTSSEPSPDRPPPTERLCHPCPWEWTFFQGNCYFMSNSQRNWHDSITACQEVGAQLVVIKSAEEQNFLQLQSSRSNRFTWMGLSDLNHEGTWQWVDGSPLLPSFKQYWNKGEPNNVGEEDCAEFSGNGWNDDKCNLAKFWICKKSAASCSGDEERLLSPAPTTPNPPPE
# TEST SUMMARY: flow cytometry, IgG titrated on cyno DC-SIGN CHO cells
Entries and their measured EC50 follow.
# number only, unit µg/mL dropped from output

Some binders with known EC50 results, for comparison:
958N05 Parental (antibody, V domains shown) VH: QVTLRESGPALVKPTQTLTLTCTFSGFSLSTSGISVSWIRQPPGKALEWLALIDWDDDKYYSTSLKTRLTISKDTSKNQVVLTMTNMDPVDTATYYCARTPSGSYGRYFDLWGRGTLVTVSS VL: DIQLTQSPSTLSASVGDRVTITCRASQSISNWLAWYQQKPGKAPKLLIYKASSLESGVPSRFTGSGSGTEFTLTISSLQPDDFATYYCQQYNSYWTFGQGTKVEIKR
0.08
960K03 Parental (antibody, V domains shown) VH: QVTLRESGPALVKPTQTLTLTCTFSGFSLSTGGMCVSWIRQPPGKALEWLALIDWDDDKYYSTSLKTRLTISKDTSKNQLVLTMTNMDPVDTATYYCARAHSGSYFDFWGQGTLVTVSS VL: DIQMTQSPSTLSASVGDRVTITCRASQRISNWLAWYQQKPGKAPKLLIYKASSLESGVPSRFSGSGSGTEFTLTISSLQPDDFATYYCQQFNSYWTFGQGTKVEIKR
0.02
2B2 Chimeric (antibody, V domains shown, Murine variable regions on human constant regions) VH: EVQLQQSGAELVRPGSSVKMSCKTSGYTFTNYGINWVKQRPGQGLEWIGYIYIGNDYTEYNERFKGKATLTSDTSSSTAHIQLNSLTSEDSAIYFCARLYYGSSLYSYAMDYWGQGTSVTVSS VL: DIVMTQAAPSVSVTPGESVSISCRSSKSLLHSSGNTYLYWFLQRPGQSPQLLISRMSNLASGVPDRFSGSGSGTAFTLRISRVEAEDVGVYYCMQHLEYPYTFGGGTKLELKR
0.32
952G04 Parental (antibody, V domains shown) VH: QVTLRESGPALVKPTQTLTLTCTFSGFSLSTSGVSVTWIRQPPGKALEWLALIDWDDDKYYSTSLKTRLAISKDTSKNQVVLTMTNMDPVDTATYYCARTPSGSYGRYFDLWGRGTLVTVSS VL: DIQMTQSPSTLSASVGDRVTITCRASQSISTWLAWYQQKPGKAPKLLIYEASSLESGVPSRFSGSGSGTEFTLTISSLQPDDFATYYCQQYNSYWTFGQGTKVEIKR
0.19
914M09 Parental (antibody, human IgG1, kappa, V domains shown) VH: QVQLQESGPGLVKPSETLSLTCAVSGGSISSYYWNLIRQPAGKGLEWIGRIYTSGSTNYNPSLKSRVTMSVDTSKNQFSLKLSSVTAADTAVYYCARDSGGFYYYYGMDVWGQGTTVTVSS VL: DIQLTQSPSFLSASVGDRVTITCRASQGISSYLAWYQQKPGKAPKLLIYAASTLQGGVPSRFSGSGSGTEFTLTISSLQPEDFATYHCQQLNSYPWTFGQGTKVEIKR
0.08
550E03 Parental (antibody, V domains shown, also called 550Ee03) VH: QVTLRESGPALVKPTQTLTLTCTFSGFSLSTSGMSVSWIRQPPGKALEWLALIDWDDDKYYSTSLKTRLTISKDTSKNQVVLTMTNMDPVDTATYYCARMALRHAFDAWGQGTMVTVSS VL: QSVLTQPPSVSGAPGQRVTISCTGSSSNIGAGYDVHWYQQLPGTAPKLLIYVNSNRPSGVPDRFSGSKSGTSASLAITGLQAEDEADYYCQSYDSSLSGWVFGGGTKLTVLG
0.39
906C18 Parental (antibody, V domains shown) VH: EVQLVESGGGLVQPGGSLRLSCAASGFTFNNYWMNWVRQAPGKGLEWVANIRQDGSEKYYVDSVKGRFTISRDNAKNSLFLQMNSLRAEDTAVYYCARERAYCSTTSCPDYSNDYWGQGTLVTVSS VL: EIVMTQSPATLSVSPGERATLSCRASQTINNNLAWFQQKPGQTPRLLIYGASTGATGIPARFSGSGSGTEFTLTISSLQSEDFAVYYCQQYNNWPRGLTFGGGTKVEIKR
0.77

Okay, now this binder:
Q: Item under review: 2B2 Hz (antibody, V domains shown, also called humanized 2B2) VH: QVQLVQSGAEVKKPGASVKVSCKASGYTFTNYGINWVRQAPGQRLEWMGYIYIGNDYTEYNERFKGRVTITSDTSASTAYMELSSLRSEDTAVYYCARLYYGSSLYSYAMDYWGQGTTVTVSS VL: DIVMTQSPLSLPVTPGEPASISCRSSKSLLHSSGNTYLYWFLQKPGQSPQLLISRMSNLASGVPDRFSGSGSGTDFTLKISRVEAEDVGVYYCMQHLEYPYTFGGGTKVEIKR . Reported EC50?
A: 0.04
